Answer each item with its documented PBM binding z-score.
System: PPARg:RXRa DBDmut IVT, anti-RXR (DBD mutation: RXRa K156A/R161A, NR concentration 270 nM, RXRa partner concentration 90 nM)
experiment-notes: PBM binding z-score (relative to random genomic background probes); higher = stronger binding; sequences stand for … in GC…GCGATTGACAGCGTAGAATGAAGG

PBM binding z-score lookup needed for TCTGGTAGATCAGCAGGTTAAGAAAGCTGGCCAA , thanks.
0.973

Could you share which PBM binding z-score value was measured for CCAGACAGGTTAAAGGTAACTCAGTCTGGTACGC ?
0.728

Value lookup for PBM binding z-score; key = CCGACTGGGGCAAAAAGGTTACCATACCATCCGG
2.47

Which value of PBM binding z-score has been reported for TCTGGTAGATCAAGCAGGTTAAGAAAGCCTGAGT in the records?
1.17

Would you mind telling me what PBM binding z-score value was observed for ATCTCGAGGTAACAAGTTCAGTGAAAGAGAGGAC ?
0.257

Query: PBM binding z-score; subject: GCTTCTAGGTCAACTGATGGTCAGCTAAAGCTCG
7.69

If you can, please state the reported PBM binding z-score value of CCGACTGTGGCAAAGGTTACCATACTCAGTACGA .
2.07

Quick one: PBM binding z-score of CAGCCTAGGTCAGGGCCAGTACAGGAGGAACGTT ?
1.35

// returns reported PBM binding z-score for input TCTTGTAGATAAACAGGAGGTTAAGAAAGATCGA
1.35

GET /values?readout=PBM binding z-score&item= TCGAGTAGGTTAGGGGCATTGAGAATGGCGTCGA
1.85

Please look up its PBM binding z-score: ATCTCTAGGTAAAGATAGTTCGGTGAATGCAAAT
2.2

Name the recorded PBM binding z-score for CCCTACGGGTCACTCCAGGTTATAGCATCGGAGT .
0.284

Would you mind telling me what PBM binding z-score value was observed for GTACGAAGGTGAATAGGTCGTTGATGAGTAGGCG ?
1.5

Need PBM binding z-score, item TCTGCTAGGTCAACGCTGGTCAGCTAATCTGCTA
4.5

What does the record list as PBM binding z-score for TAGCCTAGGTCATTGGTCCAGTATAGTACGCATC ?
2.05

So what does the record say about PBM binding z-score for CCTACTGGGCCAAAAAGGTCTTTGATGCCGATAA ?
3.45

Given the entry GCTGCTAGGTCAACTGATGGTCAGCCAAAGCTCG , report its measured PBM binding z-score.
4.84

Need PBM binding z-score of CGAACTAGCTCATCCAGGACAGTGAATACATTGA , thanks.
0.221

// query PBM binding z-score value for entry ACAGACACGTGAGTGAAGGTAACTCAGCTGGACG
-0.453
